Test: soluble on expression in E. coli; label from the status in PepcDB or PDB records
assay metric: soluble on expression in E. coli

Solved cases below.
sequence string	soluble on expression in E. coli
MQYIKIHALDNVAVALADLAEGTEVSVDNQTVTLRQDVARGHKFALTDIAKGANVIKYGLPIGYALADIAAGEHVHAHNTRTNL	soluble
MGSDKIHHHHHHMTDDIYFAPLLPWQHGLWSQLTMRVLAQKQSLPHALLAAGMQGMGKRAFVWRLVAWLLCRARDEHPLGACGHCESCQWLRSGTHPSLQALPLISLPISADNAHTQEVASGTAKDKKTTKAASNGSLKIKVDEIRALQPFIYQGGQGMRICVLDHAEQMTIAAANALLKTLEEPQAQVHLFLISDAPAQLLPTIKSRVQQLSLQTIDPAIAVDYVTKVLGSTVHREALGTDVIEQLIQLANGAPLAAVALAQAPWYSKRALWLTTWQALRSGKRSSVAASDYWQIHLGIAEFIRLSELMVIDIRRVGLGFEAQQKDINFSTTLNGYQPIDNELEAFAHSLQQTKIALQQNVQEKFAYDKLMQELACL	not soluble
MDSPRVERFRAQVTDTFVPNLTWAMAPVTATINLFQDFQSYQRLAQQNRELRSELRRMQAWKEAALQLEQENARLLDLNNVRLDPRLTYITGVVLADSGSPFRQSVLINVGSRDGLVDGWATMDGIGLVGRISGVADKTARVILLTDASSRIPAIIQPSGQRVIVSGDNSAAPFIDFLEDSDLVKPGHRVISSGDGGVFPAGLLIGQVAADPTGKLRVIMAADYQRLEFLRVLRHHGTTTVSDSAQIIGPQLPVAEATQLEHHHHHH	not soluble
MKPVQLTVDNIAKAIFTVNRHAKTALNPSFLYLLKKKAIEKLLEEGKAKKVGLHFSRNPKYSQQQSDVLVAVGDYYFHIPPTKQDFAALPHLGSLNDSYRNPPARMPLSEAKAILIAYTGLREKPEQKPKRLTRPVFKRLGDRY	not soluble
MTKKIVLAGGTGFIGQYLQQRFEENGDEVVIISRRAPHVSWDDSEAVREALEGADMLVNLAGKSVNCRYNEQNKKAILQSRIDTTNILGEAVLACERPPKLWLNSSTATIYRHAEDRAMTEANGELGSGFSENVAKAWEEEFFSFQLPNTRQAALRISIVLGGDGGALTPYRYLTKFGLGGKQGSGKQMVSWIHVEDVFRVIRFIEEQEALEGVINCTSPQPVSNKVLTTAIRRAMNVKVGLPATAWMLEIGTFLLRTESELILKSRWVLPERLLQAGFTFQYETIDDALSEILVQSKSASHLLEHHHHHH	not soluble
MGSDKIHHHHHHMNVLEQFYQLGWTLDSAGGASGEAYMAEQDGQKLFLKRNSNPFIAALSAEGIVPKLVWTKRIETGEVVTAQHWKNGRELNEDEMNQTRVAELLHKIHGSRPLLTMLKRMEMEPITPDIMLNKINASLSREVLTHHVVRRALTYLEDHIPNLDARFFTVVHGDVNHNNWLLSDRDELYLVDWEGAMIADPAIDIGMLLYNYVPQNKWSQWFKTYGVEESVNLNKRMKWYTVIQAIGLIQWYEEQKRYRDMNTWLKFLNEVMNSNLFI	not soluble

Query MGSDKIHHHHHHMRLFKSLKNPKKTDAKLPKKSSGLNNRAAIGIDIDQHSIKMVQLSGRSLNQIQLEKYVIAKLPKNIIQGNKVQNYDQLVTYLQQAYAKLGTSCKNIVASVPQNLATIEQLTYTAKDAELDLQGFVESSISEASSISLEEANYDYQVLSQSAVGEAVLSVASRKDEIEPLIDAFNAAGMKLSALDVDIFGQYNAYALWINHFAPELADEKVAIFGVYAAQTYALVIQDGKILYKQETSVSEEQLNQLIQRTYQVTAEKAEEIINSPQKPSDYQESVANYFNQQITQEIQRVLQFYYTTQTADDMTDIKHILLTGEAVRQKGIAQTVASQTNADVQCVHPARYFANDLKTDEQQFELDAPTLTKAFGLAVRGL yields soluble on expression in E. coli of not soluble

Query MTEQSVKNTPQHETQSKPKQKTVKLIIKRQDTSDSKPYEETFEIPYRENLNVIACLMEIRRNPVNIKGEKTTPVVWDMNCLEEVCGACSMVINGRARQSCSAIVDQLEQPIRLEPMNTFPVIRDLQVDRSRMFDNLKRMKAWIPIDGTYDLGPGPRMPEKKRQTAYELSKCMTCGVCLEVCPNVTENNKFVGAQAISQVRLFNLHPTGSMTKDERLNALMGTGGLQQCGNSQNCVNACPKGIPLTTSIAAMNRETTFHMFKSFFGSDHEVE yields soluble on expression in E. coli of not soluble

Query MGHHHHHHSHMDQRQRRILGQPLSIPTSQPKQKRTSMISFFSKVSWKLRFQKREPLKNVFFILAERARDPSAKKRHMAMRNLGTMAYEAPDKVRKYKKIVLDLLVYGLYDPVNLEVIHESMKTLTVVLGKIQGKGLGSFFIDIALQTRTLLDDENDSLRYSAFVLFGQLAAFAGRKWKKFFTSQVKQTRDSLLIHLQDRNPQVAKACKTTFQACSPYLKLKEEYSFQSEEDQRNTKLYQQLSHYHPEILQFFYANKIL yields soluble on expression in E. coli of not soluble

Query GAMGSGDTQLFNRAVSMVEKNKDIRSLLQCDDGITGKERLKAYGELITNDKWTRNRPIVSTKKLDKEGRTHHYMRFHVESKKKIALVHLEAKESKQNYQPDFINMYVDVPGEKRYYLIKPKLHPVSN yields soluble on expression in E. coli of soluble

Query MGSDKIHHHHHHMDTDWSNLAVRLERLLERFERIIDRHDPVLPRDPAFFDGAIAFRWRRSGEQGTFEPVTHPHLPDPADLVGIDLVREDLIRNTAQFMDGYPANNVLLWGERGTGKSTCVKGMLRLFADRGLRLVEVQRDDLMSLPALIAALRSVPRRFILFCDDLSFGEGEGGYRELKALLEGSIEAKPTNILFYATSNRRHLLPERMEDNLSSEIHPEEAVSEKLSLADRFGMALGFYPFSQDVYLSIVERYAEKFALPMEREALRKEAHLWAMYRGSRSGRSARQFIDDLAGRLGVRLNDR yields soluble on expression in E. coli of not soluble

Query MGSDKIHHHHHHMKHIEDNAGSERKPLAGAAKSVPAVAADKPYHRKNLREDLLRSALELTVERDGPAFSLRELAMREKVSHTAVYRHFSDKASLFAELSSEGFRQLALYQNRTIEAPDLPPLARLEQMGATYVRFAMENVGFFRVMFDVNLAGEWEEARKGERTAFGNLVGLVRQCQSEGDIIDADPRAIATYLVLSPHGLAHFNNIGHLTHLLQTSMTLDQLATQVFRLTLAPFLTKPYSEQDVRALVNSIF yields soluble on expression in E. coli of not soluble

###

Test: soluble on expression in E. coli; label from the status in PepcDB or PDB records
assay metric: soluble on expression in E. coli

Solved cases below.
sequence string	soluble on expression in E. coli
MGSDKIHHHHHHMKEVFDLRGRVALVTGGSRGLGFGIAQGLAEAGCSVVVASRNLEEASEAAQKLTEKYGVETMAFRCDVSNYEEVKKLLEAVKEKFGKLDTVVNAAGINRRHPAEEFPLDEFRQVIEVNLFGTYYVCREAFSLLRESDNPSIINIGSLTVEEVTMPNISAYAASKGGVASLTKALAKEWGRYGIRVNVIAPGWYRTKMTEAVFSDPEKLDYMLKRIPLGRTGVPEDLKGVAVFLASEEAKYVTGQIIFVDGGWTAN	soluble
MLQALLDSKDFLALTLANPQTLGDEFSFTLGEHTRVNVWDTGVIVFEPAQPQGKDVILSCGVHGNETAPIELCNTLIKQLLQQKIIAKQRTLFLIGNPLAINNGTRIIDENMNRLFSGEHSNPPGLVNPERLRAKKLETYVDRFFKAAAAGRQRIHYDLHTAMRASKHEKFAIYPYRPGRAYSAEQIMFLAASGVDTVLFHHEPTTTFSYFSSEQYGADAFTIELGKVYPMGQNDMTRFIAAQEMFTRLITDKPLQLESFSTDKVNLYQVCRVINKHFDDFEFTFATDVENFRAFPKGFVLAREGGQEIKVEQEVESIVFPNAKVPIGNRTVICLIPSVAPDVRLEHHHHHH	soluble
MAHHHHHHMPRKETKKRKRAPSSAKESVSSTDEQGKRGGAFSKFKEFDVSELLQKPQEVPEIQPVVEEQPCSPCDEVVADPPPLTATDTVEATSEEPAAPIPQLIPPEPLKDLPPDEEFVPLPTIQVVPMMNRALEAQSGLLKEPAPPASIQRVTQPGALPPAMPTALMELLSG	soluble
VADEYKWALASIYETDDEWEAAFEDVQAELDALNDYEGRLTEDGETLLAALELRDAVYRDAKTVSAYASMRSDEDTRDQEYQALQARGASLMTDVSSATSFFDPELQACTREQLQSMIEETPELAAYEHYFDDVLRMKPHTRSAEVEGLLSELGEVFGAPSDAYNMLTDADLEFPTVEDPAGDAVEISQSN	soluble
MVKQISVFVENKPGRLAAVTEVLMKHNINIRAFTIADAGDFGIIRMVVDKTDEAYQALKEAGFTVRLTNVLAVEVEDKPGALHRIAKALGDAGVNIDYVYAFTSEKHKALIIFRVDDREKAKEVLEKLGVLFKGEIN	not soluble

Consider now this further sequence.
Query MEQEFFFPPPKKSDGPVVACVVEKKGDGTRTSMRQNEIYAYSAQIRTGDGCMVMPKIHWNSFEPSDWVSCTLEYVNKANQIKEKEMLEISKVPAENFDRFGMPPTRFENGIVQIKTLFVACPEFIKNRETRNAYGSYKKLFILNIGLGFVSTRRTADGNLAEKVKNGDVYTGIFEFRAKDNGAINFNHRGRVRDETNHVIERDAMWELTKTSSVAATDVQKKQMKEAIEQLRKDAEQFEREFKDSQSRPVAPMLPPNEISENRKEINLGLALPSRHSQPSIRTVDVVTTTPAQMMPTASSFRIPFAQVSKAPVVAPSSQLQQQQQQPCSSNQTARIGNFLERDQVRGNLLGVPLSSSTPRGSPELLRRREVTADDGNITSNTAVMLRDNNANPMNRRRPS yields soluble on expression in E. coli of not soluble

Cited source for all entries: the DeepSol protein solubility set
